Each recorded value in this set is attributed to ChEMBL document CHEMBL3885861.

species: Rattus norvegicus; test: Open TG-GATES - Regimen: Single; format: toxicity, organism-based, Sprague-Dawley; parameters: regimen Single, gender Male, age 6 weeks; conditions: in vivo, po, 1000 mg/kg, 9 h, tissue Plasma, route gavage, dose level High
Assign labels as follows, please: met for AST below 70 IU/L; not met for AST equal to or exceeding 70 IU/L.

[
  {
    "Mol smiles": "CNC(=C[N+](=O)[O-])NCCSCc1ccc(CN(C)C)o1",
    "Category label": "met"
  },
  {
    "Mol smiles": "Cc1nnc2n1-c1ccc(Cl)cc1C(c1ccccc1Cl)=NC2",
    "Category label": "not met"
  },
  {
    "Mol smiles": "CN/C(=N/CCSCc1nc[nH]c1C)NC#N",
    "Category label": "met"
  },
  {
    "Mol smiles": "COC(=O)C1=C(C)NC(C)=C(C(=O)OC)C1c1ccccc1[N+](=O)[O-]",
    "Category label": "not met"
  }
]
